From: patent US7109338B2

Provide the recorded Anti-Rhinovirus activity, HRV33 for the entries that follow.
Test system: HRV33 (1200)
Experiment: Anti-rhinovirus spectrum (MTT), HRV33
Format: cell-based, human rhinovirus
Parameters: unit not given here
Details: HRV33
One number for each entry.

Molecule	Target System	Anti-Rhinovirus activity, HRV33
CCc1ccc2c(c1)Cc1c-2n(CC)c2ccc(C(C)C)cc2c1=O	HRV33 (1200)	0.094

Report Anti-Rhinovirus activity, HRV33 for each item below.
1. CCn1c2c(c(=O)c3cc(CC(C)C)ccc31)Cc1cc(OC)ccc1-2 [Compound B12]
2. CCn1c2c(c(=O)c3cc(C(C)C)ccc31)Cc1cc(OC)ccc1-2

[reply]
0.12
0.11

###

Test: Cytotoxicity (MTT, without virus), HeLa
Conditions: human, HeLa cells (uninfected)
Provide the recorded CC50 at 4 days for the entries that follow.

Known CC50 at 4 days results, listed for orientation:
CCn1c2c(c(=O)c3cc(C(C)C)ccc31)Cc1c-2ccn1C > 10 µg/mL
CCn1c2c(c(=O)c3cc(C(C)C)ccc31)Cc1c(C)csc1-2 > 5 µg/mL
CCn1c(-c2ccco2)cc(=O)c2cc(C(C)C)ccc21 18 µg/mL
Cc1c(-c2ccccc2)n(-c2ccccc2)c2ccc(C(C)C)cc2c1=O > 5 µg/mL
CCn1c2c(c(=O)c3cc(C(C)C)ccc31)Cc1cc(C)sc1-2 > 5 µg/mL

Report CC50 at 4 days for each item below.
1. CCn1c2c(c(=O)c3cc(C(C)C)ccc31)Cc1ccccc1-2
2. CCn1c(-c2ccc(OC)c(C)c2)c(C)c(=O)c2c(C)c(OCC(C)C)ccc21
3. CCn1c2c(c(=O)c3cc(C(C)C)ccc31)Cc1ccsc1-2
4. CCn1c(-c2ccccc2)c(C)c(=O)c2cc(C(C)C)ccc21

[reply]
["> 10 µg/mL", "> 4 µg/mL", "7.8 µg/mL", "11 µg/mL"]

###

Test system: coxsackievirus type B4 (CB4,JVB)
Assay: In vitro anti-picornavirus activity (MTT), CB4
Type: cell-based
Settings: HeLa cells, MTT method, 37° C.
Provide the recorded IC50 CB4 for the entries that follow.
Give bare numbers, in µg/mL.

Known IC50 CB4 results, listed for orientation:
Molecule	Units Label	IC50 CB4
COc1ccc(-c2c(C)c(=O)c3cc(C(C)C)ccc3n2C)cc1 [Compound A81]	µg/mL	2.2
CCn1c(-c2nccs2)cc(=O)c2cc(C(C)C)ccc21 [Compound A319]	µg/mL	9.4
CC(C)c1ccc2c(c1)c(=O)cc(-c1ccc(Br)s1)n2C [Compound A316]	µg/mL	1.1
CCn1c(-c2cccc(C)c2)c(C)c(=O)c2c(Cl)c(OCC(C)C)ccc21 [Compound A181]	µg/mL	1.8
CCCc1ccc2c(c1)c(=O)c(C)c(-c1ccccc1)n2CC [Compound A30]	µg/mL	1.8
CCn1c(-c2ccc(OC)c(C)c2)cc(=O)c2cc(C(C)C)ccc21 [Compound A98]	µg/mL	1.2

// below: IC50 CB4 requested for another molecule
[ask] Notebook: pull reported IC50 CB4 for coxsackievirus type B4 (CB4,JVB), entry Cc1cc2c(c(C)c1OCC(C)C)c(=O)cc(-c1ccccc1)n2C [Compound A285]
[reply] 1.9

###

Provide the recorded melting point for the entries that follow.

Molecule	melting point
CCn1c(-c2ccc(OC)c(C)c2)c(C)c(=O)c2c(C)c(OCC(C)C)ccc21 [Compound A191]	149 °C
CCn1c(-c2ccco2)cc(=O)c2cc(C(C)C)ccc21 [Compound A304]	70 to 73 °C
Cc1c(-c2ccccc2)n(-c2ccc(Cl)cc2)c2ccc(C(C)C)cc2c1=O [Compound A324]	233 to 235 °C
CCn1c2c(c(=O)c3cc(C(C)C)ccc31)C(NC(C)=O)c1ccccc1-2 (stereo not shown)	215 °C (dec.)
CCn1c2c(c(=O)c3cc(C(C)C)ccc31)Cc1c-2ccn1C [Compound D53]	91 to 93 °C
CCn1c2c(c(=O)c3cc(C(C)C)ccc31)C(OC)(c1ccccc1)c1ccccc1-2 (stereo not shown)	237 to 239 °C
CCOC(=O)c1c(-c2ccccc2)n(C)c2ccc(C(C)C)cc2c1=O	164 to 165 °C
CCn1c2c(c(=O)c3cc(C(C)C)ccc31)Cc1ccsc1-2 [Compound D50]	168 to 169 °C
Cc1c(-c2ccccc2)n(-c2ccccc2)c2ccc(C(C)C)cc2c1=O [Compound A320]	225 °C
CCn1c2c(c(=O)c3cc(C(C)C)ccc31)Cc1c(C)csc1-2 [Compound D52]	195 °C (dec.)

Report melting point for each item below.
1. CCn1c2c(c(=O)c3cc(C(C)C)ccc31)C(C)c1ccccc1-2 (stereo not shown) [Compound C40]
2. CCn1c(-c2ccccc2)c(C)c(=O)c2cc(C(C)C)ccc21 [Compound A37]
3. CCn1c2c(c(=O)c3cc(C(C)C)ccc31)C(N)c1ccccc1-2.Cl.Cl (stereo not shown)

[reply]
1: 152 to 154 °C; 2: 159 to 165 °C; 3: 200 °C (dec.)

###

Tested on: human rhinovirus type 1B (HRV 1B, B632)
Assay: Anti-rhinovirus activity (MTT), HRV1B
Type: cell-based
Set-up: unit not given here
Conditions: HRV1B
Provide the recorded Anti-Rhinovirus activity, HRV1B for the entries that follow.
Answers are plain numbers.

Known Anti-Rhinovirus activity, HRV1B results, listed for orientation:
Molecule	Anti-Rhinovirus activity, HRV1B
CCn1c2c(c(=O)c3cc(C(C)C)ccc31)Cc1ccccc1-2.Cl	0.30
CCn1c2c(c(=O)c3cc(C(C)C)ccc31)Cc1cc(OC)c(OC)cc1-2	0.44
CCc1ccc2c(c1)Cc1c-2n(CC)c2ccc(C(C)C)cc2c1=O	0.25
CCn1c2c(c(=O)c3cc(CC(C)C)ccc31)Cc1cc(OC)ccc1-2 [Compound B12]	0.25
CCn1c2c(c(=O)c3c(C(C)C)c(OC)ccc31)Cc1ccccc1-2	0.20

Report Anti-Rhinovirus activity, HRV1B for each item below.
1. CCn1c2c(c(=O)c3cc(C(C)C)ccc31)Cc1cc(OC)ccc1-2
2. CCn1c2c(c(=O)c3cc(CC(C)C)ccc31)Cc1cc(OC)ccc1-2 [Compound B15]
3. CCn1c2c(c(=O)c3cc(C(C)C)ccc31)Cc1cc(OC)c(C)cc1-2

[reply]
0.25
0.36
0.23

###

System: human rhinovirus type 1B (HRV 1B, B632)
Assay: Anti-rhinovirus activity (MTT), HRV1B
Type: cell-based
Details: HeLa (Ohio strain) cells, MTT method, 33° C.
Metric: IC50 HRV1B

Known IC50 HRV1B results, listed for orientation:
CCn1c(-c2nccs2)cc(=O)c2cc(C(C)C)ccc21 1.5 µg/mL
Cc1ccc(-n2c(-c3ccccc3)c(C)c(=O)c3cc(C(C)C)ccc32)cc1 >2.5 µg/mL
CCn1c(-c2cccs2)cc(=O)c2cc(C(C)C)ccc21 0.48 µg/mL
Cc1c(-c2ccccc2)n(-c2cccc(F)c2)c2ccc(C(C)C)cc2c1=O 0.18 µg/mL

Report IC50 HRV1B for each item below.
1. CCn1c2c(c(=O)c3c(C(C)C)c(OC)ccc31)Cc1ccccc1-2
2. CCn1c(-c2ccccc2)c(C)c(=O)c2cc(NCC(C)C)ccc21.O

[reply]
1. 0.17 µg/mL
2. 0.78 µg/mL

[ask] Notebook: pull reported IC50 HRV1B for human rhinovirus type 1B (HRV 1B, B632), entry Cc1c(-c2cccs2)n(C)c2ccc(OCC(C)C)c(C)c2c1=O
[reply] 0.45 µg/mL

###

Test: Cytotoxicity (MTT, without virus), HeLa-S3
Settings: human, HeLa-S3 cells (uninfected)
Metric: CC50 at 4 days

Known CC50 at 4 days results, listed for orientation:
Compound	CC50 at 4 days
CCn1c(-c2ccccc2)c(C)c(=O)c2cc(C(C)C)ccc21 [Compound A37]	12 µg/mL
CCn1c2c(c(=O)c3cc(C(C)C)ccc31)Cc1ccsc1-2 [Compound D50]	> 10 µg/mL
CCn1c(-c2ccco2)cc(=O)c2cc(C(C)C)ccc21 [Compound A304]	> 20 µg/mL

Report CC50 at 4 days for each item below.
1. CCn1c2c(c(=O)c3cc(C(C)C)ccc31)Cc1c(C)csc1-2 [Compound D52]
2. CCn1c2c(c(=O)c3cc(C(C)C)ccc31)Cc1ccccc1-2 [Compound B2]
3. CCn1c2c(c(=O)c3cc(C(C)C)ccc31)Cc1cc(C)sc1-2 [Compound D51]
4. CCn1c(-c2ccc(OC)c(C)c2)c(C)c(=O)c2c(C)c(OCC(C)C)ccc21 [Compound A191]
5. CCn1c2c(c(=O)c3cc(C(C)C)ccc31)Cc1c-2ccn1C [Compound D53]
6. Cc1c(-c2ccccc2)n(-c2ccccc2)c2ccc(C(C)C)cc2c1=O [Compound A320]

[reply]
> 5 µg/mL
> 10 µg/mL
> 5 µg/mL
> 4 µg/mL
> 10 µg/mL
> 5 µg/mL

###

Provide the recorded IC50 HRV1B for the entries that follow.
System: human rhinovirus type 1B (HRV 1B, B632)
Test: Anti-rhinovirus activity (MTT), HRV1B
Format: cell-based
Conditions: HeLa (Ohio strain) cells, MTT method, 33° C.
Answers are plain numbers, in mg/L.

Known IC50 HRV1B results, listed for orientation:
COc1ccc(-c2c(C)c(=O)c3cc(C(C)C)ccc3n2C)cc1 1.7
CCn1c(-c2ccccc2)c(C)c(=O)c2cc(OCC(C)C)ccc21 0.90
CCn1c(-c2ccccc2)c(C)c(=O)c2ccc(C(C)C)cc21 0.59
CCn1c(-c2cccc(OC)c2)c(C)c(=O)c2cc(C(C)C)ccc21 5.6

// below: IC50 HRV1B requested for another compound
[ask] Which value of IC50 HRV1B has been reported for CCn1c(-c2ccccc2)c(C)c(=O)c2cc(-c3ccccc3)ccc21 in the records?
[reply] 0.43
